Test: physchem
Settings: pH 3.7, aqueous buffer
OBSERVATION_TYPE: solubility (µg/mL)

{"COMPOUND": "NC(=O)N1C(=O)/C(=C(\\O)c2cccs2)c2cc(Cl)ccc21 [Drug 7, Tenidap]", "OBSERVATION_TYPE": "solubility", "RESULT_UNITS": "µg/mL", "REPORTED_MEASUREMENT": 2}
